- Test summary: Larvicidal activity against Aedes aegypti 4th instar larvae measured after 48 hrs
- Type: ADME
LC10 overview
Your answer is read as µg/mL, so omit the unit and give the number.

Field: example entries. Status: answers known.
What value of LC10 has been reported for the following molecule? CCOC(=O)/C=C/c1ccc(OC)cc1 [4-METHOXY ETHYL CINNAMATE]
18.2

Another molecule to look at: O=C(O)/C=C/c1ccc(C(F)(F)F)cc1
87.7

Below: the item to evaluate.
Value lookup for LC10; key = CCOC(=O)/C=C/c1ccc(Cl)cc1Cl [ETHYL 3-(2,4-DICHLOROPHENYL)ACRYLATE]
10.2
